Property: IC50; scope: individual compounds
- Tested on: DLD-1 human colon cancer cells
- measurement_description: in vitro cell growth inhibition assay using DLD-1 cells
- Assay type: cell-based
- condition: in vitro cell growth inhibition, DLD-1 human colon cancer cells; read-out: DLD-1 mean IC50
quantity_kind: IC50 (nM)

[[record]]
compound = "C=C1CC2CCC34CC5OC6C(OC7CCC(CC(=O)CC8C(CC9OC(CCC1O2)CC(C)C9=C)OC(CC(O)CO)C8OC)OC7C6O3)C5O4 (centres unmarked)"
value_reported = 12.2

[[record]]
compound = "C=C1CC2CCC34CC5OC6C(OC7CCC(CC(=O)C[C@H]8C(CC9OC(CCC1O2)CC(C)C9=C)OC(CC(O)CO)C8OC)OC7C6O3)C5O4 (some centres unmarked)"
value_reported = 0.93


----------
Property: Complete Mitotic Block 10 hour; scope: individual compounds
- Tested on: U937 human histiocytic lymphoma cells
- measurement_description: U937 Mitotic Block Reversibility Assay
- Format: cell-based
quantity_kind: Complete Mitotic Block 10 hour (nM)

[[record]]
compound = "C=C1CC2CCC34CC5OC6C(O3)C3OC(CCC3O[C@H]6C5O4)CC(=O)CC3C(CC4OC(CCC1O2)CC(C)C4=C)OC(CC(O)CN)C3OC (stereo partly drawn)"
quantity_kind = "Complete Mitotic Block 10 hour"
unit_tag = "nM"
value_reported = 12

[[record]]
compound = "C=C1CC2CCC34CC5OC6C(OC7CCC(CC(=O)CC8C(CC9OC(CCC1O2)CC(C)C9=C)OC(CC(O)CNCc1ccccc1)C8OC)OC7C6O3)C5O4 (stereo not drawn)"
quantity_kind = "Complete Mitotic Block 10 hour"
unit_tag = "nM"
value_reported = 10

[[record]]
compound = "C=C1C[C@@H]2CC[C@@]34C[C@H]5O[C@H]6[C@@H](O3)[C@H]3O[C@H](CC[C@@H]3O[C@@H]6[C@H]5O4)CC(=O)C[C@@H]3[C@@H](OC)[C@@H](C[C@H](O)CNC)O[C@H]3C[C@H]3O[C@@H](CC[C@@H]1O2)C[C@@H](C)C3=C"
quantity_kind = "Complete Mitotic Block 10 hour"
unit_tag = "nM"
value_reported = 10

[[record]]
compound = "C=C1CC2CCC34CC5OC6C(OC7CCC(CC(=O)CC8C(CC9OC(CCC1O2)CC(C)C9=C)OC(CC(O)CNCC)C8OC)OC7C6O3)C5O4 (stereo not drawn)"
quantity_kind = "Complete Mitotic Block 10 hour"
unit_tag = "nM"
value_reported = 3

[[record]]
compound = "C=C1CC2CCC34CC5OC6C(OC7CCC(CC(=O)CC8C(CC9OC(CCC1O2)CC(C)C9=C)OC(CC(O)CN1CCOCC1)C8OC)OC7C6O3)C5O4 (stereo not drawn)"
quantity_kind = "Complete Mitotic Block 10 hour"
unit_tag = "nM"
value_reported = 10

[[record]]
compound = "C=C1CC2CCC34CC5OC6C(OC7CCC(CC(=O)CC8C(CC9OC(CCC1O2)CC(C)C9=C)OC(CC(O)CNC(C)C)C8OC)OC7C6O3)C5O4 (stereo not drawn)"
quantity_kind = "Complete Mitotic Block 10 hour"
unit_tag = "nM"
value_reported = 7

[[record]]
compound = "C=C1CC2CCC34CC5OC6C(OC7CCC(CC(=O)CC8C(CC9OC(CCC1O2)CC(C)C9=C)OC(CC(O)CN1CCC[C@@H]1CO)C8OC)OC7C6O3)C5O4 (stereo partly drawn)"
quantity_kind = "Complete Mitotic Block 10 hour"
unit_tag = "nM"
value_reported = 10

[[record]]
compound = "C=C1CC2CCC34CC5OC6C(OC7CCC(CC(=O)CC8C(CC9OC(CCC1O2)CC(C)C9=C)OC(CC(O)CN(CC)CC)C8OC)OC7C6O3)C5O4 (stereo not drawn)"
quantity_kind = "Complete Mitotic Block 10 hour"
unit_tag = "nM"
value_reported = 10

[[record]]
compound = "C=C1CC2CCC34CC5OC6C(OC7CCC(CC(=O)CC8C(CC9OC(CCC1O2)CC(C)C9=C)OC(CC(O)Cn1ccnc1)C8OC)OC7C6O3)C5O4 (stereo not drawn)"
quantity_kind = "Complete Mitotic Block 10 hour"
unit_tag = "nM"
value_reported = 30

[[record]]
compound = "C=C1CC2CCC34CC5OC6C(OC7CCC(CC(=O)CC8C(CC9OC(CCC1O2)CC(C)C9=C)OC(CC(O)CN1CC[C@@H](O)C1)C8OC)OC7C6O3)C5O4 (stereo partly drawn)"
quantity_kind = "Complete Mitotic Block 10 hour"
unit_tag = "nM"
value_reported = 10

[[record]]
compound = "C=C1CC2CCC34CC5OC6C(OC7CCC(CC(=O)CC8C(CC9OC(CCC1O2)CC(C)C9=C)OC(CC(O)CNCCO)C8OC)OC7C6O3)C5O4 (stereo not drawn)"
quantity_kind = "Complete Mitotic Block 10 hour"
unit_tag = "nM"
value_reported = 10

[[record]]
compound = "C=C1CC2CCC34CC5OC6C(OC7CCC(CC(=O)CC8C(CC9OC(CCC1O2)CC(C)C9=C)OC(CC(O)CNCc1ccc(Cl)cc1)C8OC)OC7C6O3)C5O4 (stereo not drawn)"
quantity_kind = "Complete Mitotic Block 10 hour"
unit_tag = "nM"
value_reported = 10


----------
- System: U937 human histiocytic lymphoma cells
- measurement_description: U937 Mitotic Block Reversibility Assay
- Type: cell-based
Property: Complete Mitotic Block 10 hour; scope: individual compounds
quantity_kind: Complete Mitotic Block 10 hour

[[record]]
compound = "C=C1CC2CCC34CC5OC6C(OC7CCC(CC(=O)CC8C(CC9OC(CCC1O2)CC(C)C9=C)OC(CC(O)CCO)C8OC)OC7C6O3)C5O4 (stereo not drawn)"
quantity_kind = "Complete Mitotic Block 10 hour"
value_reported = "30 nM"

[[record]]
compound = "C=C1CC2CCC34CC5OC6C(OC7CCC(CC(=O)CC8C(CC9OC(CCC1O2)CC(C)C9=C)OC(CC(O)CN1CCCCCC1)C8OC)OC7C6O3)C5O4 (stereo not drawn)"
quantity_kind = "Complete Mitotic Block 10 hour"
value_reported = "10 nM"

[[record]]
compound = "C=C1CC2CCC34CC5OC6C(OC7CCC(CC(=O)CC8C(CC9OC(CCC1O2)CC(C)C9=C)OC(CC(O)CN1CCNCC1)C8OC)OC7C6O3)C5O4 (stereo not drawn)"
quantity_kind = "Complete Mitotic Block 10 hour"
value_reported = "10 nM"

[[record]]
compound = "C=C1CC2CCC34CC5OC6C(OC7CCC(CC(=O)CC8C(CC9OC(CCC1O2)CC(C)C9=C)OC(CC(O)CN=[N+]=[N-])C8OC)OC7C6O3)C5O4 (stereo not drawn)"
quantity_kind = "Complete Mitotic Block 10 hour"
value_reported = "30 nM"

[[record]]
compound = "C=C1CC2CCC34CC5OC6C(OC7CCC(CC(=O)CC8C(CC9OC(CCC1O2)CC(C)C9=C)OC(CC(O)CNC(CO)CO)C8OC)OC7C6O3)C5O4 (stereo not drawn)"
quantity_kind = "Complete Mitotic Block 10 hour"
value_reported = "100 nM"

[[record]]
compound = "C=C1CC2CCC34CC5OC6C(OC7CCC(CC(=O)CC8C(CC9OC(CCC1O2)CC(C)C9=C)OC(CC(=O)CO)C8OC)OC7C6O3)C5O4 (stereo not drawn)"
quantity_kind = "Complete Mitotic Block 10 hour"
value_reported = "30 nM"

[[record]]
compound = "C=C1CC2CCC34CC5OC6C(OC7CCC(CC(=O)CC8C(CC9OC(CCC1O2)CC(C)C9=C)OC(C(O)CN)C8C)OC7C6O3)C5O4 (stereo not drawn)"
quantity_kind = "Complete Mitotic Block 10 hour"
value_reported = "3 nM"

[[record]]
compound = "C=C1CC2CCC34CC5OC6C(OC7CCC(CC(=O)CC8C(CC9OC(CCC1O2)CC(C)C9=C)OC(CC(O)CN(C)C)C8OC)OC7C6O3)C5O4 (stereo not drawn)"
quantity_kind = "Complete Mitotic Block 10 hour"
value_reported = "10 nM"

[[record]]
compound = "C=C1CC2CCC34CC5OC6C(OC7CCC(CC(=O)CC8C(CC9OC(CCC1O2)CC(C)C9=C)OC(CC(O)CN1CCCC1)C8OC)OC7C6O3)C5O4 (stereo not drawn)"
quantity_kind = "Complete Mitotic Block 10 hour"
value_reported = "10 nM"

[[record]]
compound = "C=C1CC2CCC34CC5OC6C(OC7CCC(CC(=O)CC8C(CC9OC(CCC1O2)CC(C)C9=C)OC(CC(O)CN(CCO)CCO)C8OC)OC7C6O3)C5O4 (stereo not drawn)"
quantity_kind = "Complete Mitotic Block 10 hour"
value_reported = "10 nM"

[[record]]
compound = "C=C1CC2CCC34CC5OC6C(OC7CCC(CC(=O)CC8C(CC9OC(CCC1O2)CC(C)C9=C)OC(CC(O)CNCc1ccc(OC)cc1)C8OC)OC7C6O3)C5O4 (stereo not drawn)"
quantity_kind = "Complete Mitotic Block 10 hour"
value_reported = "10 nM"

[[record]]
compound = "C=C1CC2CCC34CC5OC6C(OC7CCC(CC(=O)CC8C(CC9OC(CCC1O2)CC(C)C9=C)OC(CC(O)CNCCc1ccccc1)C8OC)OC7C6O3)C5O4 (stereo not drawn)"
quantity_kind = "Complete Mitotic Block 10 hour"
value_reported = "10 nM"


Ref: patent US6365759B1
